Recorded values, source patent US5990137A.

Measured Target: Xanthine oxidase (Bos taurus, UniProt P80457)
Sequence (P80457 whole entry): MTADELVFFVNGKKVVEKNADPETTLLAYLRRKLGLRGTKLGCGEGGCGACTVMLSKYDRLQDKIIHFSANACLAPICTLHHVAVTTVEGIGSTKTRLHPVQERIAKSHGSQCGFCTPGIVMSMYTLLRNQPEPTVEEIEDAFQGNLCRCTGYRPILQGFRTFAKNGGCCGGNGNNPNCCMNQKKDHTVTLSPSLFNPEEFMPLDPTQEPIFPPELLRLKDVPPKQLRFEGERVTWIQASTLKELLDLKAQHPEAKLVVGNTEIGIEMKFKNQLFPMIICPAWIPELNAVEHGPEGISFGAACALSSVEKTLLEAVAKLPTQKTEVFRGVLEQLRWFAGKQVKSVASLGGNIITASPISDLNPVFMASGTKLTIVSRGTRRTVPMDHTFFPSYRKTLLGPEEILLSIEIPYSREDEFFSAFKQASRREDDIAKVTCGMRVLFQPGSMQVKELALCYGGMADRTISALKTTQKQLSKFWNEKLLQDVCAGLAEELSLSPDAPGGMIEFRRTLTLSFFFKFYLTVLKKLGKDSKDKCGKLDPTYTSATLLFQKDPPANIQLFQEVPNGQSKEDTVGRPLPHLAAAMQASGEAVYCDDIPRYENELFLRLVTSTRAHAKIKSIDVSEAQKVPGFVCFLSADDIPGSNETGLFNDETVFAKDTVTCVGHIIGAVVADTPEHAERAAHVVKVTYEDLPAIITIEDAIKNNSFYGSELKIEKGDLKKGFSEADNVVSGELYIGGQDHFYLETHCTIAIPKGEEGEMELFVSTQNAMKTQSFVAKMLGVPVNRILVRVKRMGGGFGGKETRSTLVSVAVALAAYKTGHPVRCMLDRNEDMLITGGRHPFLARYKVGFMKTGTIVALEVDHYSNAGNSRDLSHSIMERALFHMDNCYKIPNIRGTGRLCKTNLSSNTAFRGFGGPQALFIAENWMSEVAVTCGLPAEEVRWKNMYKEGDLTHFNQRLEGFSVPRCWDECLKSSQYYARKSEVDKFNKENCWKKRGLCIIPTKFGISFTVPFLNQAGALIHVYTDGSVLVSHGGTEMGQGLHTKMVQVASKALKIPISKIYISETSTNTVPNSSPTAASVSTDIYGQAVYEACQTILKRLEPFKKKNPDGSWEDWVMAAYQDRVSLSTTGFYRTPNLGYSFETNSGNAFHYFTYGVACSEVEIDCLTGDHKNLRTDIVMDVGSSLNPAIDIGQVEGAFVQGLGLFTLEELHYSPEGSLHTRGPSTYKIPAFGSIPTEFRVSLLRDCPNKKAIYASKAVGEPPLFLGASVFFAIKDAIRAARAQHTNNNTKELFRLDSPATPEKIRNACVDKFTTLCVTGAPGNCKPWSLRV
Procedure Summary: Xanthine oxidase assay (superoxide by hypoxanthine/xanthine oxidase, Lucigenin)
Test Settings: hypoxanthine 150 μM, buttermilk xanthine oxidase, 37° C., read-out: Xanthine Oxidase Inhibition IC50 (Integral)
pIC50: −log10 of the molar value.

Smiles Structure	pIC50
COc1cc(/C(C)=N/N=C(\C)c2cc(OC)c(O)c(OC)c2)cc(OC)c1O	4.70
COc1cc(C=Nc2ccc(F)cc2)cc(OC)c1O	4.55
COc1cc(/C=N/N=C/c2cc(OC)c(O)c(OC)c2)cc(OC)c1O	4.15
Oc1ccc(/C=N/N=C/c2ccc(O)c(O)c2)cc1O	5.96
COc1cc(C=Nc2ccccc2)cc(OC)c1O	4.85
COc1ccc(N=Cc2cc(OC)c(O)c(OC)c2)cc1	4.49
COc1cc(C=Nc2ccc(Br)cc2)cc(OC)c1O	4.47
COc1cc(C=Nc2nncs2)ccc1O	4.79
COc1cc(C=Nc2nncs2)cc(OC)c1O	5.68
